The origin of these recorded values is PubChem BioAssay AID686978.

experimentNotes: qHTS for Inhibitors of human tyrosyl-DNA phosphodiesterase 1 (TDP1): qHTS in cells in absence of CPT; further: nearly all actives have a fitted effect of over 55% in size
measurementSetup: DT40 Tdp1-/- hTDP1 cells, no CPT, ATP luminescence, 48 h
The whole screen tested about 420,000 compounds, of which about 64,000 (15%) were called active. Inconclusive results (about 27%) are left out. The call rests on the fitted dose curve; in most records, active means well fitted inhibition curve with a large enough effect; inconclusive means small, poorly fitted or top-dose-only effect; inactive means flat fitted curve, though single readings scatter. Not all results are given here.
A correct response names exactly one class from active, inactive

compound	classification
Cc1c(C=O)c2ccccc2n1CC(=O)O	inactive

Tell me the recorded outcome of this test for "CCCCNS(=O)(=O)CCNCc1ccccc1OC" .
inactive

Tell me the recorded outcome of this test for "C#CCOCCOCCOCCNc1nc(N2CCN(C(=O)Cn3cc(CCO)nn3)CC2)nc(N2CCN(C(=O)[C@H](CCCCN)n3cc(CCCC)nn3)CC2)n1" .
inactive

Tell me the recorded outcome of this test for "COC(=O)c1ccc2nc(-c3cccc(Br)c3)c(Cc3ccccc3C(F)(F)F)n2c1" .
inactive

Tell me the recorded outcome of this test for FC(F)(F)c1ccc(-c2cccc3c2C2CC3CCN2Cc2ccccc2)cc1 (centres undefined) .
active
